system: UACC-62; test: NCI tumour cell line growth inhibition, 48 h
The source made the active and inactive calls. Cut-off read from the data, not from the text of the source: active = GI50 up to about 1.1 µM and inactive = higher.
PROPERTY: GI50

Look over these answered cases.
- COMPOUND: "O=C1OC(c2ccc([N+](=O)[O-])cc2)=N/C1=C\\c1ccc(O)cc1"
  GI50: "> 100 µM (inactive)"
- COMPOUND: "O=C(Nc1nc2ccc([N+](=O)[O-])cc2s1)C(=O)C(C(=O)c1ccncc1)C1OC(=O)c2ccccc21 (centres undefined)"
  GI50: "> 100 µM (inactive)"

stdin: Give measured GI50 for `O=P(O)(O)C(N=C(Nc1ccccc1)Nc1ccccc1)P(=O)(O)O` (UACC-62).
stdout: > 100 µM (inactive)

stdin: Give measured GI50 for `Cc1cc(NC(=S)Nc2ccccc2)c(NC(=S)Nc2ccccc2)cc1C` (UACC-62).
stdout: 18.2 µM (inactive)

---

tested on: OVCAR-4; assay: NCI tumour cell line growth inhibition, 48 h
Activity calls are given as the source filed them. No stated cut-off is given here; in the data, active = GI50 up to about 1.1 µM and inactive = higher.
PROPERTY: GI50

Look over these answered cases.
- COMPOUND: "N#C/C(N)=C(C#N)/N=C/NCCO"
  GI50: "> 100 µM (inactive)"
- COMPOUND: "C(=C\\c1ccc2ccccc2c1Nc1ccccc1)/c1ccccc1"
  GI50: "8.15 µM (inactive)"
- COMPOUND: "CC(=O)OC1CC[C@@]2(C)C(CC[C@]3(C)C2CC=C2[C@@H]4CC(C)(C)CCC4(C)CCC23C)[C@@]1(C)C(=O)O (some centres not stated)"
  GI50: "14.9 µM (inactive)"

stdin: Indicate its recorded GI50; the compound in question is CCOc1ccccc1N1C(=O)C(=O)C(c2nc3ccccc3o2)/C(=N\N)C1=O (configuration not stated)
stdout: 27.1 µM (inactive)

stdin: Indicate its recorded GI50; the compound in question is OCC1CCCC1O (configuration not stated)
stdout: > 100 µM (inactive)

stdin: Indicate its recorded GI50; the compound in question is `Cc1cc(NC(=S)Nc2ccccc2)c(NC(=S)Nc2ccccc2)cc1C`
stdout: 32.3 µM (inactive)

stdin: Indicate its recorded GI50; the compound in question is `Cn1c(=O)c2c(nc(NCCNc3nc4c(c(=O)n(C)c(=O)n4C)n3C)n2C)n(C)c1=O`
stdout: > 100 µM (inactive)

stdin: Indicate its recorded GI50; the compound in question is `CCOc1ccc(N/C(Cl)=C(Cl)\C(=C(\Nc2ccc(OCC)cc2)n2nnc3ccccc32)[N+](=O)[O-])cc1`
stdout: 10.3 µM (inactive)

stdin: Indicate its recorded GI50; the compound in question is CSC1NNC2(C(=O)N1)c1ccccc1-c1ccccc12 (configuration not stated)
stdout: > 10 µM (inactive)

stdin: Indicate its recorded GI50; the compound in question is c1ccc([B-]23Oc4ccccc4[NH+]2c2ccccc2O3)cc1 (configuration not stated)
stdout: > 100 µM (inactive)

stdin: Indicate its recorded GI50; the compound in question is C=CCOCCCCC(C(C)=O)C(=O)OC (configuration not stated)
stdout: > 100 µM (inactive)

stdin: Indicate its recorded GI50; the compound in question is `CC(=O)O[C@]1(C)OC(=O)[C@@H](C)N1[N+](=O)[O-]`
stdout: > 100 µM (inactive)

---

system: NCI-H460; experiment: NCI tumour cell line growth inhibition, 48 h
Active and inactive are the calls of the source. No stated cut-off is given here; in the data, active = GI50 up to about 1.1 µM and inactive = higher.
In this exercise, the only acceptable responses are label 1 = active, label 0 = inactive

stdin: State the result this test recorded for O=C1C=CC(CC(=O)c2ccc3ccccc3c2)O1 (stereo not given) .
stdout: label 0

stdin: State the result this test recorded for `CCN(CC)CCOC(=O)/C(=C/c1ccc(OC)cc1)c1cc(OC)c(OC)c(OC)c1` .
stdout: label 0

stdin: State the result this test recorded for CCCOC(=O)NC(C)C(=O)NC(CCC(=O)NC(CCCC(N)C(=O)O)C(=O)NC(C)C(=O)O)C(=O)O (stereo not given) .
stdout: label 0

stdin: State the result this test recorded for `CSc1ccc(-c2cc(-c3nc4ccccc4[nH]3)nc(N)c2C#N)cc1` .
stdout: label 0
